Target: AKT1 (Homo sapiens (Human), UniProt P31749)
Sequence (P31749 whole entry): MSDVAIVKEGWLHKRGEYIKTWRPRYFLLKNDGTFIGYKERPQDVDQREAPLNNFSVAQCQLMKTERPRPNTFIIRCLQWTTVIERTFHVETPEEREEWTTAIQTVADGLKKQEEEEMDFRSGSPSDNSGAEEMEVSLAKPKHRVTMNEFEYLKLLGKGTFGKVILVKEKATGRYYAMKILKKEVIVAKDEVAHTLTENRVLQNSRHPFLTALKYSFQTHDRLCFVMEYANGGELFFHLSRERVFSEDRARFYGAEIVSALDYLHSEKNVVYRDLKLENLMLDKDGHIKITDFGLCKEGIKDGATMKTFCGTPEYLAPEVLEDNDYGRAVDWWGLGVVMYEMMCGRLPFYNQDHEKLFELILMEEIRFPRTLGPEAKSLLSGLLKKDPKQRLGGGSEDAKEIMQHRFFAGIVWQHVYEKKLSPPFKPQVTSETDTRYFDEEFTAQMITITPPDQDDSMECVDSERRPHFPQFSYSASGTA
Experiment: Inactive Akt Alpha Screen Assay
Conditions: non *labeled: Akt Alpha Screen assay; read-out: AKT1 biochemical assay, IC50
reported_metric: IC50 (nM)

A: CC(=O)Nc1ccc(S(=O)(=O)NCc2ccc(-c3nnc4n3-c3cccnc3Nc3ccccc3-4)cc2)cc1
B: Cn1ccc(S(=O)(=O)NC2(c3ccc(-c4nnc5n4-c4cccnc4Nc4ccccc4-5)cc3)CCC2)n1
Ask | For this pair, A and B , which shows a numerically higher IC50? // return label of chosen record
Reply | B

* * *

Molecular target: AKT1 (Homo sapiens (Human), UniProt P31749)
Assay: Inactive Akt Alpha Screen Assay
Conditions: non *labeled: Akt Alpha Screen assay; read-out: AKT1 biochemical assay, IC50
pIC50: −log10 of the molar value. Where a name gives a salt, the structure may show the parent alone.
reported_metric: pIC50

Example cases with answers are listed next.
1. Cc1ccc2c(c1)Nc1ncccc1-n1c(-c3ccc(C4(N)CCC4)cc3)nnc1-2 :: 6.31
2. COc1cccc(C(=O)Nc2ccc(-c3nnc4n3-c3cccnc3Nc3ccccc3-4)cc2)c1 :: 6.80
3. c1ccc2c(c1)Nc1ncccc1-n1c(-c3ccc(CN4CCC(c5c[nH]c6ccccc56)CC4)cc3)nnc1-2 :: 6.30
4. CCN(CC)C(=O)C1CCCN(Cc2ccc(-c3nnc4n3-c3cccnc3Nc3ccccc3-4)cc2)C1 (centres unmarked) :: 5.32
5. O=S(=O)(NC1CCN(Cc2ccc(-c3nnc4n3-c3cccnc3Nc3ccccc3-4)cc2)CC1)c1cccc(F)c1 :: 5.57

P: Nc1ccc(-c2nnc3n2-c2cccnc2Nc2ccccc2-3)cc1 [Example 11, hydrochloride]
Q: O=C(Nc1ccc(F)cc1)NC1CCN(Cc2ccc(-c3nnc4n3-c3cccnc3Nc3ccccc3-4)cc2)CC1
Ask | Which has the smaller recorded pIC50, P or Q ? Please identify the chosen entry by its label.
Reply | P
(P: 6.14, Q: 6.48)
